// each record: one item and its IC50 for PRS (prolyl-tRNA synthetase) protein, PRS portion of EPRS (Homo sapiens (Human))

Field: example entries. Status: answers known.
In [3]: df
Out[3]:
                           structure_smiles                             system_tested  value_observed
0  O[C@H]1CCCN[C@@H]1CCCn1cnc2cc(Cl)cc(-c3ccoc3)c21  PRS (prolyl-tRNA synthetase) protein, PRS portion of EPRS (Homo sapiens (Human))        ≤ 0.1 µM
1  O[C@H]1CCCN[C@@H]1CCCn1cnc2cc(Cl)cc(C3=CCOCC3)c21  PRS (prolyl-tRNA synthetase) protein, PRS portion of EPRS (Homo sapiens (Human))   0.1 to 0.5 µM
2  O[C@H]1CCCN[C@@H]1CCCn1cnc2cccc(-c3cccc(F)c3)c21  PRS (prolyl-tRNA synthetase) protein, PRS portion of EPRS (Homo sapiens (Human))   0.1 to 0.5 µM

Lab note: PRS (prolyl-tRNA synthetase) protein, PRS portion of EPRS (Homo sapiens (Human)) assay, enter IC50 for "O=[N+]([O-])c1c(Br)ccc2ncn(CCC[C@H]3NCCC[C@@H]3O)c12" here
≥ 0.5 µM

Lab note: PRS (prolyl-tRNA synthetase) protein, PRS portion of EPRS (Homo sapiens (Human)) assay, enter IC50 for "C/C(=C\[C@H]1NCCC[C@@H]1O)Cn1c(CO)nc2cc(Cl)c(Cl)cc21" here
≥ 0.5 µM

Lab note: PRS (prolyl-tRNA synthetase) protein, PRS portion of EPRS (Homo sapiens (Human)) assay, enter IC50 for "C/C(=C\[C@H]1NCCC[C@@H]1O)Cn1cnc2c(C)c(Br)ccc21" here
≥ 0.5 µM

Lab note: PRS (prolyl-tRNA synthetase) protein, PRS portion of EPRS (Homo sapiens (Human)) assay, enter IC50 for "O[C@H]1CCCN[C@@H]1CCCn1cnc2ncc(Br)cc21" here
≥ 0.5 µM

Lab note: PRS (prolyl-tRNA synthetase) protein, PRS portion of EPRS (Homo sapiens (Human)) assay, enter IC50 for "C/C(=C\[C@H]1NCCC[C@@H]1O)Cn1cnc2c(C)c(Cl)ccc21" here
≥ 0.5 µM

Lab note: PRS (prolyl-tRNA synthetase) protein, PRS portion of EPRS (Homo sapiens (Human)) assay, enter IC50 for "O=[N+]([O-])c1ccc2c(ncn2C/C=C/[C@H]2NCCC[C@@H]2O)c1Cl" here
0.1 to 0.5 µM

---

Target: PRS (prolyl-tRNA synthetase) protein, PRS portion of EPRS (Homo sapiens (Human), UniProt P07814)
Sequence (P07814 1007-1512): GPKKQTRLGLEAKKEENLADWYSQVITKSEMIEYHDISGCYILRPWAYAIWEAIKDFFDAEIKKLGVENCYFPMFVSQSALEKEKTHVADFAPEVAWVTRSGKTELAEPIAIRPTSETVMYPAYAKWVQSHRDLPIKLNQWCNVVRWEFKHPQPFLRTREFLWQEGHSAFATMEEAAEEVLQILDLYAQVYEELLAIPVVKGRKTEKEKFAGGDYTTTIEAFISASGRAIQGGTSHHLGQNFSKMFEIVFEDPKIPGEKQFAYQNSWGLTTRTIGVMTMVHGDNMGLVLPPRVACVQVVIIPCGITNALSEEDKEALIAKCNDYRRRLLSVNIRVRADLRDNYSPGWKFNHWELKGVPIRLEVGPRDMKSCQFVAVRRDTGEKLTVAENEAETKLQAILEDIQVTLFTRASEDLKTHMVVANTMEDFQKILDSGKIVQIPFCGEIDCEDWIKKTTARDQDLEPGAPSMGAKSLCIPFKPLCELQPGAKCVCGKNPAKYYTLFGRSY
pIC50: −log10 of the molar value.
Readout: pIC50

Field: example entries. Status: answers known.
>>> df
                                   molecule  value_observed
0  O=C(O)c1cn(C/C=C/[C@H]2NCCC[C@@H]2O)c2cc(F)ccc12 [Example 208]          ≤ 6.30
1  O[C@H]1CCCN[C@@H]1CCCn1cnc2c(-c3cccc(Cl)c3)cccc21 [Example 21]          ≤ 6.30

Consider the molecule COC(=O)c1cn(CCC[C@H]2NCCC[C@@H]2O)c2ccc(Br)cc12 [Example 150] . State its measured pIC50.
≤ 6.30

Consider the molecule O[C@H]1CCCN[C@@H]1CCCn1cnc2cc(Cl)cc(-c3cnn(-c4nccs4)c3)c21 [Example 101] . State its measured pIC50.
≥ 7.00

Consider the molecule O[C@H]1CCCN[C@@H]1/C=C/Cn1cnc2cc(Cl)cc(Cl)c21 [Example 182] . State its measured pIC50.
≥ 7.00

Consider the molecule Cc1ccc2c(ncn2CCC[C@H]2NCCC[C@@H]2O)c1C [Example 51] . State its measured pIC50.
≤ 6.30

Consider the molecule O[C@H]1CCCN[C@@H]1CCCn1cnc2cc(Cl)cc(-c3cnn(C(F)F)c3)c21 [Example 89] . State its measured pIC50.
≥ 7.00

Consider the molecule O[C@H]1CCCN[C@@H]1CCCn1cnc2cc(Br)cc(Cl)c21 [Example 70] . State its measured pIC50.
≥ 7.00

Consider the molecule Cn1c(=O)[nH]c(=O)c2c1ncn2CCC[C@H]1NCCC[C@@H]1O [Example 163] . State its measured pIC50.
≤ 6.30

---

Entries and their IC50
Biological target: PRS (prolyl-tRNA synthetase) protein, PRS portion of EPRS (Homo sapiens (Human), UniProt P07814)

Field: example entries. Status: answers known.
>>> df
                                   compound  value_observed
0  O[C@H]1CCN[C@@H]1/C=C/Cn1cnc2cc(Cl)c(Cl)cc21 [Example 230]        ≥ 500 nM
1  O[C@H]1CCCN[C@@H]1CCCn1cnc2c(F)cccc21 [Example 6]        ≥ 500 nM
2  O[C@H]1CCCN[C@@H]1CCCn1cnc2c(Cl)c(C(F)(F)F)ccc21 [Example 66]        ≥ 500 nM
3  O[C@H]1CCCN[C@@H]1CCCn1cnc2cc(Cl)cc(-c3cccc(F)c3)c21 [Example 83]        ≤ 100 nM
4  COC(=O)c1cn(CCC[C@H]2NCCC[C@@H]2O)c2cccc(Cl)c12 [Example 152]        ≥ 500 nM
5  O[C@H]1CCCN[C@@H]1CCCn1cnc2cc(Cl)c(F)cc21 [Example 34]   100 to 500 nM
6  O[C@H]1CCCN[C@@H]1CCCn1cnc2c(N3CCCC3)ncnc21 [Example 142]        ≥ 500 nM
7  O[C@H]1CCCN[C@@H]1CCCn1cnc2c(N3CCCCC3)ncnc21 [Example 141]        ≥ 500 nM

Now let's try a different one.
Consider the compound CC(C)Cn1cc(-c2cc(Cl)cc3ncn(CCC[C@H]4NCCC[C@@H]4O)c23)cn1 [Example 115] . State its measured IC50.
100 to 500 nM

---

Biological target: PRS (prolyl-tRNA synthetase) protein, PRS portion of EPRS (Homo sapiens (Human), UniProt P07814)
pIC50: −log10 of the molar value.
Entries and their pIC50

Field: example entries. Status: answers known.
In [3]: df
Out[3]:
                           structure_smiles  readout  value_observed
0  O[C@H]1CCCN[C@@H]1CCCn1cnc2ccc(-c3ccccc3F)cc21    pIC50    6.30 to 7.00
1  O[C@H]1CCCN[C@@H]1CCCn1cnc2ccc(-c3cccc(F)c3)cc21    pIC50          ≥ 7.00
2  O[C@H]1CCCN[C@@H]1CCCn1cnc2cc(-c3cn[nH]c3)ccc21    pIC50          ≤ 6.30
3  O[C@H]1CCCN[C@@H]1CCCn1cnc2cc(C(F)(F)F)cc(Cl)c21    pIC50    6.30 to 7.00
4  Cn1cc(-c2cc(Cl)cc3ncn(CCC[C@H]4NCCC[C@@H]4O)c23)ccc1=O    pIC50          ≤ 6.30
5    O[C@H]1CCCN[C@@H]1CCCn1cnc2nc(Cl)ccc21    pIC50    6.30 to 7.00

Now let's try a different one.
Consider the compound "COC(=O)c1cn(CCC[C@H]2NCCC[C@@H]2O)c2c(Br)cccc12" . State its measured pIC50.
6.30 to 7.00

---

// each record: one item and its pIC50 for PRS (prolyl-tRNA synthetase) protein, PRS portion of EPRS (Homo sapiens (Human))
pIC50: −log10 of the molar value.

Field: example entries. Status: answers known.
                           structure_smiles  readout  value_observed
0  Cc1cscc1-c1cc(Cl)cc2ncn(CCC[C@H]3NCCC[C@@H]3O)c12    pIC50          ≥ 7.00
1  O[C@H]1CCCN[C@@H]1CCCn1cnc2cc(Cl)cc(F)c21    pIC50          ≥ 7.00
2  Cc1c(F)ccc2ncn(CCC[C@H]3NCCC[C@@H]3O)c12    pIC50    6.30 to 7.00
3  O[C@H]1CCCN[C@@H]1CCCn1nc(C(F)(F)F)c2cc(Cl)ccc21    pIC50          ≤ 6.30

Lab note: PRS (prolyl-tRNA synthetase) protein, PRS portion of EPRS (Homo sapiens (Human)) assay, enter pIC50 for "O[C@H]1CCCN[C@@H]1CCCn1cnc2cc(Cl)cc(-c3ccsc3)c21" here
≥ 7.00

Lab note: PRS (prolyl-tRNA synthetase) protein, PRS portion of EPRS (Homo sapiens (Human)) assay, enter pIC50 for "O[C@H]1CCCN[C@@H]1CCCn1cnc2c(F)cc(Br)cc21" here
6.30 to 7.00

Lab note: PRS (prolyl-tRNA synthetase) protein, PRS portion of EPRS (Homo sapiens (Human)) assay, enter pIC50 for "O[C@H]1CCCN[C@@H]1/C=C/Cn1cnc2cc(Cl)cc(F)c21" here
6.30 to 7.00

Lab note: PRS (prolyl-tRNA synthetase) protein, PRS portion of EPRS (Homo sapiens (Human)) assay, enter pIC50 for "CC(C)(C)n1cc(-c2cc(Cl)cc3ncn(CCC[C@H]4NCCC[C@@H]4O)c23)cn1" here
6.30 to 7.00

Lab note: PRS (prolyl-tRNA synthetase) protein, PRS portion of EPRS (Homo sapiens (Human)) assay, enter pIC50 for "COC(=O)c1cn(C/C=C/[C@H]2NCCC[C@@H]2O)c2cccc(Cl)c12" here
≤ 6.30

Lab note: PRS (prolyl-tRNA synthetase) protein, PRS portion of EPRS (Homo sapiens (Human)) assay, enter pIC50 for "O[C@H]1CCCN[C@@H]1CCCn1cnc2cnc(Br)cc21" here
≤ 6.30

Lab note: PRS (prolyl-tRNA synthetase) protein, PRS portion of EPRS (Homo sapiens (Human)) assay, enter pIC50 for "O[C@H]1CCCN[C@@H]1/C=C/Cn1cnc2ccc(-c3cccc(Cl)c3)cc21" here
6.30 to 7.00
